Values compiled from patent US20260355212A1.

Target: HCoV-OC43 Mpro (Human coronavirus OC43)
Sequence (P0C6X6 3247-3549 limits assumed): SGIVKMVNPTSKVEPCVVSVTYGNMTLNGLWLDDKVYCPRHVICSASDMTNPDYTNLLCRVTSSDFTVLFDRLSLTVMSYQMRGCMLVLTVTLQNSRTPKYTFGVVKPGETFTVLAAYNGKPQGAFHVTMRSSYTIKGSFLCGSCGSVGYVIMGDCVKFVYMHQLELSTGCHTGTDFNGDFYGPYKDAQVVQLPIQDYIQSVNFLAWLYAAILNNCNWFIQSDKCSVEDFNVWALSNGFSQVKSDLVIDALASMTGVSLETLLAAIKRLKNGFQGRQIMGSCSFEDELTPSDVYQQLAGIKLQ
Assay: HCoV-OC43 Mpro enzymatic inhibition assay (fluorescence)
Format: biochemical
Can you tell me IC50 for the items I'm about to list?
Numeric answer only, unit nM assumed.

Which IC50 is reported with HCoV-OC43 Mpro (Human coronavirus OC43) for this entry: CC1(C)[C@@H]2[C@@H](C(=O)N[C@H](C=O)C[C@@H]3CCNC3=O)N(C(=O)CC3CCCC(F)(F)C3)C[C@@H]21 (stereo partly drawn) ?
28.4

State its IC50 on HCoV-OC43 Mpro (Human coronavirus OC43): CC1(C)[C@@H]2[C@@H](C(=O)N[C@H](C=O)C[C@@H]3CCNC3=O)N(C(=O)C3(O)CCCCC3)C[C@@H]21
231

Please provide the recorded IC50 for CC1(C)[C@@H]2[C@@H](C(=O)N[C@H](C#N)C[C@@H]3CCNC3=O)N(C(=O)C3(c4ccccc4)CCCC3)C[C@@H]21 , tested on HCoV-OC43 Mpro (Human coronavirus OC43).
3980

Item N#Cc1cccc2cc(C(=O)N3C[C@H](C4CCCCC4)C[C@H]3C(=O)N[C@H](C=O)C[C@@H]3CCNC3=O)[nH]c12 with HCoV-OC43 Mpro (Human coronavirus OC43) - IC50?
57

Recorded IC50 for N#C[C@@H]1C[C@@H](C(=O)N[C@H](C=O)C[C@@H]2CCNC2=O)N(C(=O)c2cc3ccccc3[nH]2)C1 with HCoV-OC43 Mpro (Human coronavirus OC43), please?
390

Find IC50 (HCoV-OC43 Mpro (Human coronavirus OC43)) for the entry CCOc1ccc2[nH]c(C(=O)N3C[C@H]4[C@@H]([C@H]3C(=O)N[C@H](C=O)C[C@@H]3CCNC3=O)C4(C)C)cc2c1
169
